Reported viability change by item:
test: Nrf2 qHTS screen for inhibitors: Validation (AID 493153); settings: A549 ARE-Fluc reporter, 18-24 h; measured here: cytotoxicity max response
Records with an inconclusive call do not appear.

Compound | Unit | viability change
Cc1nccc2c1[nH]c1ccccc12 | % | 6.29
Cn1cnc(CCN)c1 | % | -10.2
c1ccc(C2(c3ccccc3)CC2C2=NCCN2)cc1 (centres undefined) | % | -1.31
C#CCOC(=O)C1=CCCN(C)C1 | % | -2.85
O=C1CCCN1CC#CCN1CCCC1 | % | 3.92
NCCc1c[nH]c2ccc(O)cc12 | % | 0.321
NC(=NCCC[C@H](N)C(=O)O)N[N+](=O)[O-] | % | 3.87
O=C(O)Cc1cnc[nH]1 | % | -0.284
NC1CCc2cc(O)c(O)cc2C1 (centres undefined) | % | 10.6
C=CCN1CC[C@]23CCCCC2[C@H]1Cc1ccc(O)cc13 (some centres undefined) | % | -5
NC1CC1c1ccccc1 (centres undefined) | % | -9.56
CC(=O)[C@H]1CCC2C3CC[C@H]4C[C@H](O)CC[C@]4(C)C3CC[C@@]21C (some centres undefined) | % | -0.378
CC(=O)NCCc1c[nH]c2ccccc12 | % | 1
CN[C@@H]1C[C@@H](c2ccc(Cl)c(Cl)c2)c2ccccc21 | % | 3.66
